Data credit: patent US20260327264A1

- assay info: Peptide stability in simulated intestinal fluid (SIF)
- Assay type: in vitro ADME
- run parameters: pig, simulated intestinal fluid; SIF, 1 h, pH 6.8, pancreatin, 37° C., 10 μM
*1 amine or outer side, *2 acyl side, *3 side chain or, on linkers, in order; H or OH if unused. Where a SMILES comes first, the peptide text is derived from it. Bridges are numbered along the chain shown (N, C = ends). [ ]: non-standard residue; d: D form. 2Nal = N[C@@H](Cc1ccc2ccccc2c1)C(=O)O; AEF = NCCOc1ccc(C[C@H](N)C(=O)O)cc1; X1 = O=C(Cc1ccc(CN[*:1])cc1)[*:2]; 3Pal = N[C@@H](Cc1cccnc1)C(=O)O; αMeL = CC(C)C[C@](C)(N)C(=O)O; β3hL = CC(C)C[C@H](N)CC(=O)O; Dab = NCC[C@H](N)C(=O)O
endpoint label: remaining at 1 h, 10 µM (%)
One number for each entry, in %.

So what's the measured remaining at 1 h, 10 µM for this one? CC(C)C[C@@H](CC(N)=O)NC(=O)[C@H](Cc1cccnc1)NC(=O)[C@H](CCN)NC(=O)[C@@H]1CCC(=O)NCc2ccc(cc2)CC(=O)N[C@@H](CO)C(=O)N[C@H]2CCC(=O)NCC[C@H](NC(=O)[C@H](CCC(N)=O)NC(=O)[C@H](Cc3c[nH]c4ccccc34)NC2=O)C(=O)N[C@@H](Cc2ccc(OCCN)cc2)C(=O)N[C@@H](Cc2ccc3ccccc3c2)C(=O)N[C@@](C)(CC(C)C)C(=O)N1 [Compound 11] ([X1]SEWQ[Dab][AEF][2Nal][αMeL]E[Dab][3Pal][β3hL]-NH2; lactam 3-6, N-10) 101
